- target under test: Glutamate racemase (Enterococcus faecalis (strain ATCC 700802 / V583), UniProt Q836J0)
- Sequence (Q836J0 whole entry): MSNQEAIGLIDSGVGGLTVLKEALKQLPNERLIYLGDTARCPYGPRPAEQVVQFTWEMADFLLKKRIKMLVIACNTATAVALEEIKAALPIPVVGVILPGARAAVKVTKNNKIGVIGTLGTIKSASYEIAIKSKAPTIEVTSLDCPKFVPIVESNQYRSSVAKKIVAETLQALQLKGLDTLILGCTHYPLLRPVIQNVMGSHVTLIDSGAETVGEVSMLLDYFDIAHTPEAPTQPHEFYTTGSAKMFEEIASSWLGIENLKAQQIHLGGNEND
- test protocol: Inhibition of Enterococcus faecalis MurI
pIC50: −log10 of the molar value.
Hi, to clarify the labels: label 1 covers pIC50 from 5 upward, label 0 covers anything below 5.

Please indicate if the recorded pIC50 for `CCCCNc1nc(N)c2ncn(Cc3c(F)cccc3F)c2n1` meets or exceeds 5. label 0

Given the entry `CCCCSc1nc(N)c2nnn(Cc3c(F)cccc3F)c2n1` , answer whether its pIC50 meets or surpasses 5. label 1

Decide: is the reported value of pIC50 for `CCCCOc1nc(NCc2cccnc2)c2ncn(Cc3c(F)ccc(Cl)c3F)c2n1` equal to or greater than 5? label 1

Does the reported pIC50 for `CCCCSc1nc(N)c2ncn(Cc3c(F)ccc(C)c3F)c2n1` fall at or above the 5 mark? label 1

---

- target under test: Glutamate racemase (Enterococcus faecalis (strain ATCC 700802 / V583), UniProt Q836J0)
- Sequence (Q836J0 whole entry): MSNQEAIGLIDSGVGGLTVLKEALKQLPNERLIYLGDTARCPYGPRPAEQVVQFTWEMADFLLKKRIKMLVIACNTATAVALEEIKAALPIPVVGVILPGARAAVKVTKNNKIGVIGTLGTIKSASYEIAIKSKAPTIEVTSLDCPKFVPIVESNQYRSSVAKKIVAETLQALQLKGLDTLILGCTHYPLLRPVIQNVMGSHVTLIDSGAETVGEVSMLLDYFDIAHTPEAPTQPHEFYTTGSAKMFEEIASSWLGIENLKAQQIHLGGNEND
- test protocol: Inhibition of Enterococcus faecalis MurI
measured property: pIC50
pIC50 is defined as minus the log10 of a concentration measured in mol/L.

Look up pIC50 with Glutamate racemase (Enterococcus faecalis (strain ATCC 700802 / V583), UniProt Q836J0) for this compound: `CCCCOc1nc(N)c2[nH]c(=O)n(Cc3c(F)cccc3F)c2n1` 4.42

Can you look up pIC50 on Glutamate racemase (Enterococcus faecalis (strain ATCC 700802 / V583), UniProt Q836J0) for `CCCCSc1nc(N)c2ncn(Cc3cccc([N+](=O)[O-])c3)c2n1` ? 5.03

Value wanted: pIC50 (Glutamate racemase (Enterococcus faecalis (strain ATCC 700802 / V583), UniProt Q836J0)) of entry CCC(Oc1nc(N)c2ncn(Cc3c(F)ccc(C)c3F)c2n1)C(F)(F)C(F)(F)F (stereo unspecified) 5.37

Can you look up pIC50 on Glutamate racemase (Enterococcus faecalis (strain ATCC 700802 / V583), UniProt Q836J0) for `CCCCSc1nc2c(ncn2Cc2c(F)ccc(C)c2F)c(=O)[nH]1` ? 4.94

Could you share what pIC50 was measured for `CCCCOc1nc(NC)c2ncn(Cc3c(F)cccc3F)c2n1` , tested on Glutamate racemase (Enterococcus faecalis (strain ATCC 700802 / V583), UniProt Q836J0)? 5.26

For Glutamate racemase (Enterococcus faecalis (strain ATCC 700802 / V583), UniProt Q836J0), provide pIC50 of `CCCCSc1nc(N)c2ncn(Cc3c(F)cccc3F)c2n1` please. 5.39

Observed pIC50 on Glutamate racemase (Enterococcus faecalis (strain ATCC 700802 / V583), UniProt Q836J0) for `CCCCSc1nc(N)c2ncn(Cc3cc([N+](=O)[O-])ccc3OC)c2n1` , please. 5.85

What measured pIC50 is associated with `CCCCSc1ncc2ncn(Cc3c(F)ccc(Cl)c3F)c2n1` on Glutamate racemase (Enterococcus faecalis (strain ATCC 700802 / V583), UniProt Q836J0)? 6.00

What reported pIC50 corresponds to CC(=O)NC(C)Oc1nc(N)c2ncn(Cc3c(F)ccc(C)c3F)c2n1 (stereo unspecified) on Glutamate racemase (Enterococcus faecalis (strain ATCC 700802 / V583), UniProt Q836J0)? 3.78

Recorded pIC50 for `CCCCSc1nc(N)c2ncn(Cc3c(F)ccc(Cl)c3F)c2n1` with Glutamate racemase (Enterococcus faecalis (strain ATCC 700802 / V583), UniProt Q836J0), please? 5.66

---

- test protocol: Inhibition of Enterococcus faecium MurI
measured property: pIC50
FYI, pIC50 means -log10 of a concentration in mol per litre.

State the recorded pIC50 for this entry: `CCCCSc1nc(N)c2nnn(Cc3c(F)cccc3F)c2n1` 5.21

Looking for the measured pIC50 of `CCCCOc1nc(N)c2ncn(Cc3c(F)ccc(C)c3F)c2n1` , can you help? 4.57

Form field: reported pIC50 of `CCCCOc1nc(N)c2[nH]c(=O)n(Cc3c(F)cccc3F)c2n1` 4.01

Please look up its pIC50: `CCCCSc1nc(N)c2ncn(Cc3c(F)ccc(C)c3F)c2n1` 5.19

Given the molecule `CCCCSc1nc(N)c2ncn(Cc3c(F)ccc(Cl)c3F)c2n1` , what is its reported pIC50? 5.59

Reported pIC50, molecule CCC(Oc1nc(N)c2ncn(Cc3c(F)ccc(C)c3F)c2n1)C(F)(F)C(F)(F)F (configuration not stated) : ____ 5.36

Can you share its pIC50? I mean this molecule: `CCCCSc1nc(N)c2ncn(Cc3cc([N+](=O)[O-])ccc3OC)c2n1` 5.60

For the molecule shown here, `CCCCOc1nc(NCc2cccnc2)c2ncn(Cc3c(F)ccc(Cl)c3F)c2n1` , give the reported pIC50. 5.57

Looking for the measured pIC50 of `CCCCNc1nc(N)c2ncn(Cc3c(F)cccc3F)c2n1` , can you help? 4.37

Any idea what its pIC50 is? The molecule is `CCCCOc1nc(NCCN2CCOCC2)c2ncn(Cc3c(F)cccc3F)c2n1` 5.26

Entry under review: `CCCCSc1nc(N)c2ncn(Cc3c(F)cccc3F)c2n1` . Reported pIC50? 5.22

Consider the molecule `CCCCSc1ncc2ncn(Cc3c(F)ccc(Cl)c3F)c2n1` and give its measured pIC50. 5.74

Quick check: pIC50 of `CCCCSc1nc(N)c2ncn(Cc3cccc([N+](=O)[O-])c3)c2n1` ? 4.75

Reported pIC50, molecule `CCCCOc1nc(NC)c2ncn(Cc3c(F)cccc3F)c2n1` : ____ 4.86

Tell me the measured pIC50 of `CCCCSc1nc2c(ncn2Cc2c(F)ccc(C)c2F)c(=O)[nH]1` , please. 5.43

---

- test protocol: Solubility by nephelometry
- Format: physicochemical
measured property: log10 of solubility kinetic (log10 of the value in µM)
Plainly stated, the numbers are log10 of solubility kinetic given in µM.

Any idea what log10 of solubility kinetic was measured for CC(=O)NC(C)Oc1nc(N)c2ncn(Cc3c(F)ccc(C)c3F)c2n1 (stereo unspecified) ? 2.00

Given CCC(Oc1nc(N)c2ncn(Cc3c(F)ccc(C)c3F)c2n1)C(F)(F)C(F)(F)F (stereo unspecified) , state its recorded log10 of solubility kinetic. 1.40

// returns reported log10 of solubility kinetic for input `CCCCSc1nc2c(ncn2Cc2c(F)ccc(C)c2F)c(=O)[nH]1` 2.00

Quick check: log10 of solubility kinetic of `CCCCOc1nc(N)c2ncn(Cc3c(F)ccc(C)c3F)c2n1` ? 1.70

Name the recorded log10 of solubility kinetic for `CCCCOc1nc(N)c2[nH]c(=O)n(Cc3c(F)cccc3F)c2n1` . 2.30

Item `CCCCSc1nc(N)c2ncn(Cc3c(F)cccc3F)c2n1` has what recorded log10 of solubility kinetic? 1.70

Using the record for `CCCCOc1nc(NC)c2ncn(Cc3c(F)cccc3F)c2n1` , report its log10 of solubility kinetic. 2.00

Would you mind telling me what log10 of solubility kinetic value was observed for `CCCCSc1nc(N)c2nnn(Cc3c(F)cccc3F)c2n1` ? 1.70

Given the entry `CCCCSc1ncc2ncn(Cc3c(F)ccc(Cl)c3F)c2n1` , report its measured log10 of solubility kinetic. 1.70

What log10 of solubility kinetic value was documented for this molecule, `CCCCSc1nc(N)c2ncn(Cc3cc([N+](=O)[O-])ccc3OC)c2n1` ? 1.40

Endpoint output: log10 of solubility kinetic of `CCCCOc1nc(NCc2cccnc2)c2ncn(Cc3c(F)ccc(Cl)c3F)c2n1` . Value? 1.26

---

- test protocol: Solubility by nephelometry
- Assay type: physicochemical
Kindly supply the reported log10(solubility kinetic) values for the records listed here.
Lab note - solubility kinetic converted to log10 from values in µM.

Need log10(solubility kinetic) of `CCCCSc1nc(N)c2ncn(Cc3c(F)ccc(Cl)c3F)c2n1` , thanks. 1.40

What does the data say about its log10(solubility kinetic)? Entry: `CCCCSc1nc(N)c2ncn(Cc3cccc([N+](=O)[O-])c3)c2n1` 1.62

So what's the measured log10(solubility kinetic) for this one? `CCCCOc1nc(NCc2ccccc2)c2ncn(Cc3c(F)ccc(C)c3F)c2n1` 0.49

Form field: reported log10(solubility kinetic) of `CCCCOc1nc(NCCN2CCOCC2)c2ncn(Cc3c(F)cccc3F)c2n1` 2.30

Which log10(solubility kinetic) reading was recorded for the molecule `CCCCNc1nc(N)c2ncn(Cc3c(F)cccc3F)c2n1` ? 2.00

I have this molecule here, `CCCCSc1nc(N)c2ncn(Cc3c(F)ccc(C)c3F)c2n1` , and I need its recorded log10(solubility kinetic). 1.40
